Here the recorded promoter activity interaction Z-score is given for each entry.
# System: E. coli BW25113 marRABp lux reporter
# PROTOCOL_DESCRIPTION: promoter activity interaction Z-score (Lux/OD deviation from empty-vector control); higher = stronger promoter induction by the compound
# CONDITION_SUMMARY: 1 µg/ml; genetic background: wild type

{"COMPOUND": "O=C(N[C@H](CO)[C@H](O)c1ccc([N+](=O)[O-])cc1)C(Cl)Cl [Chloramphenicol]", "promoter activity interaction Z-score": 0.553}
{"COMPOUND": "C/C(=C\\C(=O)OCCCCCCCCC(=O)O)C[C@@H]1OC[C@H](C[C@@H]2O[C@H]2[C@@H](C)[C@H](C)O)[C@@H](O)[C@H]1O [Pseudomonic acid]", "promoter activity interaction Z-score": -0.169}
{"COMPOUND": "NC1CONC1=O (stereo not given) [Cycloserine D]", "promoter activity interaction Z-score": -0.0783}
{"COMPOUND": "CO[C@H]1/C=C/O[C@@]2(C)Oc3c(C)c(O)c4c(O)c(c(/C=N/N5CCN(C)CC5)c(O)c4c3C2=O)NC(=O)/C(C)=C\\C=C\\[C@H](C)[C@H](O)[C@@H](C)[C@@H](O)[C@@H](C)[C@H](OC(C)=O)[C@@H]1C [Rifampicin]", "promoter activity interaction Z-score": -0.547}
{"COMPOUND": "CC1(C)S[C@@H]2[C@H](NC(=O)[C@H](N)c3ccc(O)cc3)C(=O)N2[C@H]1C(=O)O [Amoxicillin]", "promoter activity interaction Z-score": -0.138}

====

# Tested on: E. coli BW25113 tolCp lux reporter
# PROTOCOL_DESCRIPTION: promoter activity interaction Z-score (Lux/OD deviation from empty-vector control); higher = stronger promoter induction by the compound
# CONDITION_SUMMARY: 1 µg/ml; genetic background: ΔsoxS
# promoter activity interaction Z-score listing for each entry below

{"COMPOUND": "O=C(N[C@H](CO)[C@H](O)c1ccc([N+](=O)[O-])cc1)C(Cl)Cl", "promoter activity interaction Z-score": 1.66}
{"COMPOUND": "CO[C@H]1/C=C/O[C@@]2(C)Oc3c(C)c(O)c4c(O)c(c(/C=N/N5CCN(C)CC5)c(O)c4c3C2=O)NC(=O)/C(C)=C\\C=C\\[C@H](C)[C@H](O)[C@@H](C)[C@@H](O)[C@@H](C)[C@H](OC(C)=O)[C@@H]1C", "promoter activity interaction Z-score": -1.26}
{"COMPOUND": "CC1(C)S[C@@H]2[C@H](NC(=O)[C@H](N)c3ccc(O)cc3)C(=O)N2[C@H]1C(=O)O", "promoter activity interaction Z-score": -0.0133}
{"COMPOUND": "NC1CONC1=O (centres undefined)", "promoter activity interaction Z-score": -0.259}

====

# Tested on: E. coli BW25113 micFp lux reporter
# PROTOCOL_DESCRIPTION: promoter activity interaction Z-score (Lux/OD deviation from empty-vector control); higher = stronger promoter induction by the compound
# CONDITION_SUMMARY: 0.13 µg/ml; genetic background: ΔsoxS
Reported promoter activity interaction Z-score values for a set of compounds

{"COMPOUND": "CCN1CCN(C(=O)N[C@@H](C(=O)N[C@@H]2C(=O)N3[C@@H]2SC(C)(C)[C@@H]3C(=O)O)c2ccccc2)C(=O)C1=O", "promoter activity interaction Z-score": -0.266}
{"COMPOUND": "N=C(NCCCCCCNC(=N)NC(=N)Nc1ccc(Cl)cc1)NC(=N)Nc1ccc(Cl)cc1", "promoter activity interaction Z-score": -0.0137}
{"COMPOUND": "CNC(C)C1CCC(N)C(OC2C(N)CC(N)C(OC3OCC(C)(O)C(NC)C3O)C2O)O1 (centres undefined)", "promoter activity interaction Z-score": 0.232}
{"COMPOUND": "CO[C@@]12[C@H](COC(N)=O)C3=C(C(=O)C(C)=C(N)C3=O)N1C[C@@H]1N[C@@H]12", "promoter activity interaction Z-score": 0.423}
